Target: hFAAH (Homo sapiens)
Construct: expressed in transfected cells; host or cells: COS-7
Sequence (O00519 1-579): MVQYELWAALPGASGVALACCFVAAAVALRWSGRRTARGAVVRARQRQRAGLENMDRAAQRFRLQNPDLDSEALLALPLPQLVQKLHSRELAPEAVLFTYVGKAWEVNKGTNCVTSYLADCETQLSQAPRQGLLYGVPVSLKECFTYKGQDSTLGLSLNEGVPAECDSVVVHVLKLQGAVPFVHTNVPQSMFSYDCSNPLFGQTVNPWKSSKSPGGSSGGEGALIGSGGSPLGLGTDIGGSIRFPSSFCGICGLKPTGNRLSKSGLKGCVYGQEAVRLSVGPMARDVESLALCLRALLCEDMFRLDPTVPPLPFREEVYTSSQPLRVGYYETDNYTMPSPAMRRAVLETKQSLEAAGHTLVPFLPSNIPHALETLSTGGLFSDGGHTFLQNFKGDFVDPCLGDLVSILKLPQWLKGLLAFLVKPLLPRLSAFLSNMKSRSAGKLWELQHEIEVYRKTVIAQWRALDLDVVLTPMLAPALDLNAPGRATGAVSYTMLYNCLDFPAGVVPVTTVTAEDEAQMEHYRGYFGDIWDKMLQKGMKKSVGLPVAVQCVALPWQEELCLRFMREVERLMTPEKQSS
Test: FAAH activity, membranes of hFAAH overexpressing COS-7 cells, 3H-anandamide
Format: biochemical
Conditions: read-out: hFAAH Remaining activity % control (mean (range)), n=2
quantity: remaining activity at 10 µM

C=C(C)C1CCC2(C(=O)O)CCC3(C)C(CCC4C5(C)Cc6c([nH]c7ccccc67)C(C)(C)C5CCC43C)C12 (stereo not drawn)
90%
C=C(C)[C@@H]1CC[C@]2(C(=O)O)CC[C@]3(C)[C@H](CC[C@@H]4[C@@]5(C)CC[C@H](O)C(C)(C)[C@@H]5CC[C@]43C)[C@@H]12 [Compound 1, Betulinic acid, reference compound]
83%
C=C(C)[C@@H]1CC[C@]2(C=NO)CC[C@]3(C)[C@H](CC[C@@H]4[C@@]5(C)CCC(=NO)C(C)(C)[C@@H]5CC[C@]43C)[C@@H]12
97%
C=C(C)[C@@H]1CC[C@]2(C=NO)CC[C@]3(C)[C@H](CC[C@@H]4[C@@]5(C)CC[C@H](O)C(C)(C)[C@@H]5CC[C@]43C)[C@@H]12
95%

Input line: Check the records and state remaining activity at 10 µM for C=C(C)[C@@H]1CC[C@]2(C(=O)O)CC[C@]3(C)[C@H](CC[C@@H]4[C@@]5(C)CCC(=O)NC(C)(C)[C@@H]5CC[C@]43C)[C@@H]12
Output line: 88%

Input line: Check the records and state remaining activity at 10 µM for C=C(C)[C@@H]1CC[C@]2(C(=O)O)CC[C@]3(C)[C@H](CC[C@@H]4[C@@]5(C)CC6OC(C)(C)OC6C(C)(C)[C@@H]5CC[C@]43C)[C@@H]12 (stereo partly drawn)
Output line: 91%

* * *

# remaining activity at 10 µM per entry
Molecular target: hABHD12 (Homo sapiens)
Construct: expressed in transfected cells; host or cells: HEK293 (transient)
Sequence (Q8N2K0 whole entry): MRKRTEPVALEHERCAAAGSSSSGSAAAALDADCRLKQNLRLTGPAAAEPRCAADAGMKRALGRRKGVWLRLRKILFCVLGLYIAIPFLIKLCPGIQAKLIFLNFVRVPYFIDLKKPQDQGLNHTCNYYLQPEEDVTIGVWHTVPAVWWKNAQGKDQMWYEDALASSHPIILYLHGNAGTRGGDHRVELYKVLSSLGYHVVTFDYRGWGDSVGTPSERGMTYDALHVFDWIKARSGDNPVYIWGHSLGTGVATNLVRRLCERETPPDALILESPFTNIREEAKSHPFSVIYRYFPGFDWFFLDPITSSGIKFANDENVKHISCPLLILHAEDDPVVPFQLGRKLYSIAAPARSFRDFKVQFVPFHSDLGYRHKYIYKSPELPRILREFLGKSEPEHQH
Assay: Fluorescent glycerol assay of 1-AG hydrolysis in hABHD12-HEK293 lysates
Type: biochemical
Conditions: hABHD12-HEK293 lysates, 10 µM; NI = no inhibition; read-out: Remaining activity at 10 µM % ± s.e.m.
Answer with a number only, understood to be in %.

C=C(C)[C@@H]1CC[C@]2(C=O)CC[C@]3(C)[C@H](CC[C@@H]4[C@@]5(C)CC[C@H](O)C(C)(C)[C@@H]5CC[C@]43C)[C@@H]12
71
C=C(C)[C@@H]1CC[C@]2(C(=O)N3CCCC3)CC[C@]3(C)[C@H](CC[C@@H]4[C@@]5(C)CCC(=O)C(C)(C)[C@@H]5CC[C@]43C)[C@@H]12
80

Input line: Check the records and state remaining activity at 10 µM for C=C(C)[C@@H]1CC[C@]2(C(=O)N3CCCCC3)CC[C@]3(C)[C@H](CC[C@@H]4[C@@]5(C)CC[C@H](O)C(C)(C)[C@@H]5CC[C@]43C)[C@@H]12
Output line: 94

Input line: Check the records and state remaining activity at 10 µM for C=C(C)[C@@H]1CC[C@]2(C(N)=O)CC[C@]3(C)[C@H](CC[C@@H]4[C@@]5(C)Cc6nccnc6C(C)(C)[C@@H]5CC[C@]43C)[C@@H]12
Output line: 69

Input line: Check the records and state remaining activity at 10 µM for C=C(C)[C@@H]1CC[C@]2(C=O)CC[C@]3(C)[C@H](CC[C@@H]4[C@@]5(C)Cc6cnoc6C(C)(C)[C@@H]5CC[C@]43C)[C@@H]12
Output line: 84

Input line: Check the records and state remaining activity at 10 µM for C=C(C)[C@@H]1CC[C@]2(C(=O)O)CC[C@]3(C)[C@H](CC[C@@H]4[C@@]5(C)Cc6ncccc6C(C)(C)[C@@H]5CC[C@]43C)[C@@H]12
Output line: 66

Input line: Check the records and state remaining activity at 10 µM for C=C(C)[C@@H]1CC[C@]2(C(=O)NCCC)CC[C@]3(C)[C@H](CC[C@@H]4[C@@]5(C)CCC(=O)C(C)(C)[C@@H]5CC[C@]43C)[C@@H]12
Output line: 84

Input line: Check the records and state remaining activity at 10 µM for C=C(C)[C@@H]1CC[C@]2(COC(=O)CCC(C)=O)CC[C@]3(C)[C@H](CC[C@@H]4[C@@]5(C)CC[C@H](O)C(C)(C)[C@@H]5CC[C@]43C)[C@@H]12
Output line: 85

Input line: Check the records and state remaining activity at 10 µM for CC1(C)CC[C@]2(C(=O)O)CC[C@]3(C)C(=CC[C@@H]4[C@@]5(C)CC[C@H](O)[C@@](C)(CO)[C@@H]5CC[C@]43C)[C@@H]2C1 [Compound 9, Hederagenin, reference compound]
Output line: 78

* * *

# remaining activity at 10 µM per entry
Target: hFAAH (Homo sapiens, UniProt O00519)
Construct: expressed in transfected cells; host or cells: COS-7
Experiment: FAAH activity, membranes of hFAAH overexpressing COS-7 cells, 3H-anandamide
Format: biochemical
Conditions: read-out: hFAAH Remaining activity % control (mean (range)), n=2
Answer with a number only, understood to be in %.

Worked examples follow.
C=C(C)[C@@H]1CC[C@]2(C=O)CC[C@]3(C)[C@H](CC[C@@H]4[C@@]5(C)CCC(=O)C(C)(C)[C@@H]5CC[C@]43C)[C@@H]12
95
CC(C)[C@@H]1CC[C@]2(C(=O)O)CC[C@]3(C)[C@H](CC[C@@H]4[C@@]5(C)CCC(=O)C(C)(C)[C@@H]5CC[C@]43C)[C@@H]12
98

Input line: Check the records and state remaining activity at 10 µM for CC1(C)CC[C@]2(C(=O)O)CC[C@]3(C)C(=CC[C@@H]4[C@@]5(C)C[C@@H](O)[C@H](O)C(C)(C)[C@@H]5CC[C@]43C)[C@@H]2C1 [Compound 8, Maslinic acid, reference compound]
Output line: 83

* * *

# CB1R antagonist activity [35S]GTPγS binding % HU210-evoked response (Mean (range), n=2) per entry
Molecular target: CB1R (Rattus norvegicus, UniProt P20272)
Construct: membranes prepared from brain tissue of 4-week-old male rodents were used; from tissue; host or cells: rat cerebellar membranes
Sequence (P20272 whole entry): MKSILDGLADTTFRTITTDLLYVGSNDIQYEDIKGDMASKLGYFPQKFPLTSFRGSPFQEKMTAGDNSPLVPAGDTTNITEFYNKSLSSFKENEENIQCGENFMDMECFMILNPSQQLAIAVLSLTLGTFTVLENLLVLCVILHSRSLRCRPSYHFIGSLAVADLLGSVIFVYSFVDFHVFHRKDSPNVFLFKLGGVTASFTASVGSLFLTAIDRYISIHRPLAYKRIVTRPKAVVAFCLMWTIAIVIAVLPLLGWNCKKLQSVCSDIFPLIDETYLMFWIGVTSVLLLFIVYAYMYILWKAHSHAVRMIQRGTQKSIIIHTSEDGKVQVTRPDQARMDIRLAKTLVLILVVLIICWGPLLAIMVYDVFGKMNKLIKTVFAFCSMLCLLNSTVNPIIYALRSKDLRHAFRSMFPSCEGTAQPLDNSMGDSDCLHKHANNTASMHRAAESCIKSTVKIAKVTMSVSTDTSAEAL
Assay: [35S]GTPγS binding, CB1R antagonist activity, rat cerebellar membranes
Format: biochemical
Details: 10 µM

Worked examples follow.
CC1(C)CC[C@]2(C(=O)O)CC[C@]3(C)C(=CC[C@@H]4[C@@]5(C)C[C@@H](O)[C@H](O)C(C)(C)[C@@H]5CC[C@]43C)[C@@H]2C1 [Compound 8, Maslinic acid, reference compound]
99 (97-102) % HU210-evoked response
CC(C)[C@@H]1CC[C@]2(C(=O)O)CC[C@]3(C)[C@H](CC[C@@H]4[C@@]5(C)CCC(=O)C(C)(C)[C@@H]5CC[C@]43C)[C@@H]12
92 (90-95) % HU210-evoked response
C=C(C)C1CCC2(C(=O)O)CCC3(C)C(CCC4C5(C)Cc6c([nH]c7ccccc67)C(C)(C)C5CCC43C)C12 (stereo not shown)
97 (96-98) % HU210-evoked response

Note: attention shifts to another entry.
Input line: Look up CB1R (Rattus norvegicus, UniProt P20272) data: CB1R antagonist activity [35S]GTPγS binding % HU210-evoked response (Mean (range), n=2) of C=C(C)[C@@H]1CC[C@]2(C(=O)O)CC[C@]3(C)[C@H](CC[C@@H]4[C@@]5(C)CC[C@H](O)C(C)(C)[C@@H]5CC[C@]43C)[C@@H]12 [Compound 1, Betulinic acid, reference compound] , then report it.
Output line: 99 (98-99) % HU210-evoked response

* * *

Target: hMAGL (Homo sapiens, UniProt Q99685)
Construct: expressed in transfected cells; host or cells: HEK293 (transient)
Sequence (Q99685 whole entry): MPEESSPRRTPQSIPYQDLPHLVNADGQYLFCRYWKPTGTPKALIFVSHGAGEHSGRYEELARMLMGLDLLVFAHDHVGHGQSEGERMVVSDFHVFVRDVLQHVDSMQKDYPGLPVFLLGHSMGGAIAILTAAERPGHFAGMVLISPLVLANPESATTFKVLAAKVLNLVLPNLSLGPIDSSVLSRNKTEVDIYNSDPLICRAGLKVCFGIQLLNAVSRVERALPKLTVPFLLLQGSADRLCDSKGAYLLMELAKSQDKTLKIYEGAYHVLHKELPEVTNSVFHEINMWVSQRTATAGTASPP
Assay: Fluorescent glycerol assay in hMAGL-HEK293 lysates
Format: biochemical
Conditions: 10 µM; read-out: hMAGL Remaining activity % control ± s.e.m (n=3)
quantity: remaining activity at 10 µM (%)
Answer with a number only, understood to be in %.

C=C(C)[C@@H]1CC[C@]2(C(=O)O)CC[C@]3(C)[C@H](CC[C@@H]4[C@@]5(C)CCC(=O)NC(C)(C)[C@@H]5CC[C@]43C)[C@@H]12 [Compound 36]
54.1
C=C(C)[C@@H]1CC[C@]2(C=NO)CC[C@]3(C)[C@H](CC[C@@H]4[C@@]5(C)CCC(=NO)C(C)(C)[C@@H]5CC[C@]43C)[C@@H]12 [Compound 25]
88.7
C=C(C)C1CCC2(C(=O)O)CCC3(C)C(CCC4C5(C)Cc6c([nH]c7ccccc67)C(C)(C)C5CCC43C)C12 (stereo not drawn) [Compound 33]
74.8
CC(C)[C@@H]1CC[C@]2(C(=O)O)CC[C@]3(C)[C@H](CC[C@@H]4[C@@]5(C)CCC(=O)C(C)(C)[C@@H]5CC[C@]43C)[C@@H]12 [Compound 23]
77.5
CC1(C)CC[C@]2(C(=O)O)CC[C@]3(C)C(=CC[C@@H]4[C@@]5(C)C[C@@H](O)[C@H](O)C(C)(C)[C@@H]5CC[C@]43C)[C@@H]2C1 [Compound 8, Maslinic acid, reference compound]
95.6
C=C(C)[C@@H]1CC[C@]2(C=NO)CC[C@]3(C)[C@H](CC[C@@H]4[C@@]5(C)CC[C@H](O)C(C)(C)[C@@H]5CC[C@]43C)[C@@H]12 [Compound 24]
86

Input line: Check the records and state remaining activity at 10 µM for C=C(C)[C@@H]1CC[C@]2(C(=O)O)CC[C@]3(C)[C@H](CC[C@@H]4[C@@]5(C)CC[C@H](O)C(C)(C)[C@@H]5CC[C@]43C)[C@@H]12 [Compound 1, Betulinic acid, reference compound]
Output line: 76.7

Input line: Check the records and state remaining activity at 10 µM for C=C(C)[C@@H]1CC[C@]2(C=O)CC[C@]3(C)[C@H](CC[C@@H]4[C@@]5(C)CCC(=O)C(C)(C)[C@@H]5CC[C@]43C)[C@@H]12 [Compound 17]
Output line: 84.1

Input line: Check the records and state remaining activity at 10 µM for C=C(C)[C@@H]1CC[C@]2(C(=O)O)CC[C@]3(C)[C@H](CC[C@@H]4[C@@]5(C)CC6OC(C)(C)OC6C(C)(C)[C@@H]5CC[C@]43C)[C@@H]12 (stereo partly drawn) [Compound 31]
Output line: 82.7
